Each recorded value in this set is attributed to ChEMBL document CHEMBL1149999.

Measured Ki (UniProtKB Q62758)
Sequence (Q62758 whole entry): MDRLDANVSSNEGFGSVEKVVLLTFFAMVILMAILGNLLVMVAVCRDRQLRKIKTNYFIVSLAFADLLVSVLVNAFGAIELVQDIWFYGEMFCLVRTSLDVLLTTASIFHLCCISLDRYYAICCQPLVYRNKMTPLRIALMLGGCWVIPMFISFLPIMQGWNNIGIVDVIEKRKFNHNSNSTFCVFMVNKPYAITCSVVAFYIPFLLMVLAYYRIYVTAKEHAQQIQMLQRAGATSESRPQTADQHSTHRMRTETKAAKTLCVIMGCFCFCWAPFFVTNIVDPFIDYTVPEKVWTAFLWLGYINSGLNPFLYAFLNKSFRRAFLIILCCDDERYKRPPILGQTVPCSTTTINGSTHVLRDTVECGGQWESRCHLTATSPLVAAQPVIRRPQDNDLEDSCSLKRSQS
Numbers only here, please. The scale is µM.

Prompt: Would you mind telling me what Ki value was observed for `COc1cc(N)c(Cl)cc1C(=O)NC1CCN(C)CC1` ?
Completion: 0.832

Prompt: Would you mind telling me what Ki value was observed for COc1cc(N)c(Cl)cc1C(=O)NC1CC2CCC(C1)N2C (stereo in doubt) ?
Completion: 0.048

Prompt: Would you mind telling me what Ki value was observed for `COc1cc(N)c(Cl)cc1C(=O)N[C@@H]1CN2CCC1CC2` ?
Completion: 0.383

Prompt: Would you mind telling me what Ki value was observed for COc1cc(N)c(Cl)cc1C(=O)NC1CCN(Cc2ccccc2)CC1 [CLEBOPRIDE] ?
Completion: 0.104

Prompt: Would you mind telling me what Ki value was observed for COc1cc(N)c(Cl)cc1C(=O)NC1CC2CCC(C1)N2Cc1ccccc1 (stereo unspecified) ?
Completion: 0.233

* * *

Kindly state Ki for each of the entries shown.
tested target: D(2) dopamine receptor (Rattus norvegicus, UniProt P61169)
Sequence (P61169 whole entry): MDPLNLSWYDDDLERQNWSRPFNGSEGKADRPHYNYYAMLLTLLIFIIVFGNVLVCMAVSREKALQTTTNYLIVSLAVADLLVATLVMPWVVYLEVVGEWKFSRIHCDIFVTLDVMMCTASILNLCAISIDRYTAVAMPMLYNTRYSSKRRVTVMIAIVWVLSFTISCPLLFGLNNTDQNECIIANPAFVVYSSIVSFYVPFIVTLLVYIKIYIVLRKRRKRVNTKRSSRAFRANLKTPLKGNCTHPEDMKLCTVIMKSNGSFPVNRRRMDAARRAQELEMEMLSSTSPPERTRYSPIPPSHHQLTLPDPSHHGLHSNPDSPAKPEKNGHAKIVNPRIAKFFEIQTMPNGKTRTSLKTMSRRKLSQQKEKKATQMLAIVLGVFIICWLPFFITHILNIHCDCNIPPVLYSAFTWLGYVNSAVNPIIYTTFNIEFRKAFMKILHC
measurement notes: Binding affinity against Dopamine receptor D2 using [3H]spiperone as radioligand in rat striatum

Prompt: Would you mind telling me what Ki value was observed for `COc1cc(N)c(Cl)cc1C(=O)NC1CCN(C)CC1` ?
Completion: > 1000 nM

Prompt: Would you mind telling me what Ki value was observed for COc1cc(N)c(Cl)cc1C(=O)NC1CC2CCC(C1)N2C (stereo in doubt; 5) ?
Completion: > 1000 nM

Prompt: Would you mind telling me what Ki value was observed for `COc1cc(N)c(Cl)cc1C(=O)N[C@@H]1CN2CCC1CC2` ?
Completion: > 1000 nM

Prompt: Would you mind telling me what Ki value was observed for COc1cc(N)c(Cl)cc1C(=O)NC1CC2CCC(C1)N2Cc1ccccc1 (stereo unspecified) ?
Completion: 0.28 nM

Prompt: Would you mind telling me what Ki value was observed for `Nc1cc2c(cc1Cl)C(=O)NC1CCN(CCOCCO2)CC1` ?
Completion: > 1000 nM

Prompt: Would you mind telling me what Ki value was observed for COc1cc(N)c(Cl)cc1C(=O)NC1CC2CCC(C1)N2C (stereo in doubt) ?
Completion: > 1000 nM

* * *

Kindly state pKi for each of the entries shown.
tested target: Serotonin 3 (5-HT3) receptor (Rattus norvegicus, UniProt P35563+Q9JJ16)
Sequence (P35563 whole entry): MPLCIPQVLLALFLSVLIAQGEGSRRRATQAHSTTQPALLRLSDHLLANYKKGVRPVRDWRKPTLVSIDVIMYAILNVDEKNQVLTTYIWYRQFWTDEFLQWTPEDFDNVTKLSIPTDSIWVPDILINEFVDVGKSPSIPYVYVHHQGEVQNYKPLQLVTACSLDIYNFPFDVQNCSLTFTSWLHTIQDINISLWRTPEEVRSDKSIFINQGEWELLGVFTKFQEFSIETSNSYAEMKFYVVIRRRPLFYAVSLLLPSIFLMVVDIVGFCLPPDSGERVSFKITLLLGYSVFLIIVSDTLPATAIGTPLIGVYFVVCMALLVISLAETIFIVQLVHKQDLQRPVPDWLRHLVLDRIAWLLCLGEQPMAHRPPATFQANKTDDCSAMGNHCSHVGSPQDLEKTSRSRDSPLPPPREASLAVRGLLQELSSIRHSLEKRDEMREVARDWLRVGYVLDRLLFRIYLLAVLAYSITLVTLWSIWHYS
Sequence (Q9JJ16 whole entry): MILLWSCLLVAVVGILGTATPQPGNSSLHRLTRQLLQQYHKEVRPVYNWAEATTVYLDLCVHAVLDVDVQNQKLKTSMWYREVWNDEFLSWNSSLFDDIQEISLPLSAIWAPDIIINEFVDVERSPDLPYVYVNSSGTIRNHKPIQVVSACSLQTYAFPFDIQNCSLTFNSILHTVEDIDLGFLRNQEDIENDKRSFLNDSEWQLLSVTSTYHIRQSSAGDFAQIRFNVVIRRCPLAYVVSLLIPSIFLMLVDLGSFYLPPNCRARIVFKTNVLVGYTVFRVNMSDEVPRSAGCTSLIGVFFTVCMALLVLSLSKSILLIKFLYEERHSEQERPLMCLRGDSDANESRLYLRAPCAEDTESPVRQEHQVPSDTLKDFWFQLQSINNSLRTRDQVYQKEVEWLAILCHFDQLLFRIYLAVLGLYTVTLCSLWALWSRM
measurement notes: Binding affinity against 5-hydroxytryptamine 3 receptor using [3H]BRL-43694 as radioligand in rat posterior cortex
Value format note: pKi is -log10 of concentration (mol/L); just state the number.

Prompt: Quick check: pKi on Serotonin 3 (5-HT3) receptor (Rattus norvegicus, UniProt P35563+Q9JJ16), item COc1cc(N)c(Cl)cc1C(=O)NC1CC2CCC(C1)N2C (stereo in doubt) ?
Completion: 9.10

Prompt: Quick check: pKi on Serotonin 3 (5-HT3) receptor (Rattus norvegicus, UniProt P35563+Q9JJ16), item COc1cc(N)c(Cl)cc1C(=O)NC1CC2CCC(C1)N2C (stereo in doubt; 5) ?
Completion: 7.38

Prompt: Quick check: pKi on Serotonin 3 (5-HT3) receptor (Rattus norvegicus, UniProt P35563+Q9JJ16), item `Nc1cc2c(cc1Cl)C(=O)NC1CCN(CCOCCO2)CC1` ?
Completion: 7.27

Prompt: Quick check: pKi on Serotonin 3 (5-HT3) receptor (Rattus norvegicus, UniProt P35563+Q9JJ16), item `COc1cc(N)c(Cl)cc1C(=O)NC1CCN(C)CC1` ?
Completion: 6.57
